Hi, quick share: literature IC50 data for Tyrosine-protein kinase JAK2 (Homo sapiens, UniProt O60674), several sources combined.

Example compounds with recorded IC50:
Compound: NC(=O)c1cnc(Nc2ccc3c(c2)NC[C@@H](O)CO3)nc1NC1CC1
IC50: < 10 nM
--
Compound: CN1CCC(N2C(=O)c3cc4nc(-c5c(NC[C@@H](O)c6cccc(Cl)c6)cc[nH]c5=O)[nH]c4cc3C2=O)CC1
IC50: 500 to 5000 nM
--
Compound: C[C@H](O)C(=O)N1CC[C@H](Oc2ccc(-c3ncnc(Nc4ccc(N5CCN(C6COC6)CC5)c(F)c4)n3)cc2C#N)[C@H](F)C1
IC50: ≥ 1000 nM

Consider the additional compound presented here.
Hi! What's the reported IC50 for N#CCC(C1CC1)n1cc(-c2nc(-c3ccc(N4CCOCC4)cc3)cc3nccn23)cn1 (stereo not shown) on Tyrosine-protein kinase JAK2 (Homo sapiens, UniProt O60674)?
10 to 100 nM

* * *

A compilation of published IC50 results with Tyrosine-protein kinase JAK2 (Homo sapiens, UniProt O60674).

Sample Smiles: C[C@H](Nc1nc(Nc2ccc[nH]c2=O)ncc1C(N)=O)c1ccc(F)cn1
Measured Value: < 100 nM
//
Sample Smiles: O=c1[nH]c2cnc(-c3cnn4ccncc34)nc2n1CC1CCOCC1
Measured Value: 100 to 1000 nM
//
Sample Smiles: N#Cc1cc(-c2ncnc(Nc3ccc(N4CCN(C5COC5)CC4)cc3)n2)ccc1OC1CCOCC1
Measured Value: 802 nM
//
Sample Smiles: CCCO[C@@H]1CNc2cc(Nc3ncc(C(N)=O)c(NC4CC4)n3)ccc2OC1
Measured Value: 10 to 100 nM
//
Sample Smiles: CCNCc1cc(C(=O)N2CCC(N3CC(CC#N)(n4cc(-c5ncnc6[nH]ccc56)cn4)C3)CC2)nc(C(F)(F)F)n1
Measured Value: 10 to 50 nM

Next item in the queue.
Item: N#CCC1(n2cc(-c3ncnc4[nH]ccc34)cn2)CN(C2CCN(C(=O)c3ccc(-c4ccc5cnccc5c4)c(F)c3)CC2)C1 Test system: Tyrosine-protein kinase JAK2 (Homo sapiens, UniProt O60674) Read-out: IC50 Value: ?
10 to 50 nM

* * *

Recorded pIC50 for molecules tested on UniProt O60674, drawn from a number of studies.
pIC50: −log10 of the molar value.

Reference set, count: 5
Sample Smiles: CC(C)(O)c1ccc(Nc2ncnc(-c3ccc(OC4CCOCC4)c(C#N)c3)n2)cc1
pIC50: < 6.00

Sample Smiles: CCOC(=O)CCn1cc(Nc2ncc3ccn(C[C@H]4CC[C@H](O)CC4)c3n2)cn1
pIC50: > 7.00

Sample Smiles: O=C(NCCC1(F)COC1)c1noc2c1CN(c1ncnc3[nH]ccc13)CC2
pIC50: 6.30 to 7.00

Sample Smiles: N#Cc1cc(-c2ncnc(Nc3ccc(N4CCN(C5COC5)CC4)cc3)n2)ccc1O[C@H]1CCN(C(=O)C2(C#N)CC2)C[C@H]1F
pIC50: 6.63

Sample Smiles: OCCN1CCN(c2ccc(Nc3nccc(Nc4cccnc4-c4ccccn4)n3)cc2Cl)CC1
pIC50: 6.00 to 8.00

Given CS(=O)(=O)CCNc1nc(Nc2ccc3c(c2)NC[C@H](O)CO3)ncc1C(N)=O , state its recorded pIC50.
7.00 to 8.00

* * *

Several publications report IC50 on UniProt:O60674; those values are gathered here.

Molecule: Cc1ccsc1C(=O)N1CC2(CC(N(C)c3ncnc4[nH]ccc34)C2)C1
Property Name: IC50
Measured Value: 100 to 1000 nM
//
Molecule: O=C1NCCCCOCc2cc(ccc2OC2CCCOC2)Nc2nccc(n2)-c2ccc1cc2[N+](=O)[O-] (stereo not drawn)
Property Name: IC50
Measured Value: 1000 to 10000 nM
//
Molecule: CCn1c(C(=O)N(C2CC2)C2CC2)cc2c3c(ncn3C)c(Nc3nc(C)c(C(=O)NCCOC)s3)nc21
Property Name: IC50
Measured Value: 1.47 nM

// lookup IC50 | system=UniProt:O60674 | key= O=C1NCCCCOCc2cc(cc(N3CCOCC3)c2)Nc2ncc(Cl)c(n2)-c2ccc1cc2
11 to 100 nM

# query: IC50 | item N#Cc1cc(-c2ncnc(Nc3ccc(N4CCN(C5COC5)CC4)cc3)n2)ccc1O[C@H]1CCN(C(=O)NCCO)C[C@H]1F | system: UniProt:O60674
601 nM

Missing value: IC50, UniProt:O60674, entry CC[C@@H](n1cc(-c2nc(-c3cnn(C[C@@H](O)CO)c3)cn3nccc23)cn1)C(C)(F)F (single isomer, unassigned) . Fill in?
100 to 1000 nM

IC50 of Cc1ccc(NC(=O)N2CCCCC2)cc1N1CCc2nc(Nc3ccc(OCCN4CCCC4)cc3)ncc2C1 on UniProt:O60674?
40 nM

Query the reported IC50 for UniProt:O60674; item: N#CCC1(n2cc(-c3ncnc4[nH]ccc34)cn2)CN(C2CCN(C(=O)Nc3c(F)cccc3F)CC2)C1
10 to 50 nM

Lab note: need IC50 for N#CCC1(n2cc(-c3ncnc4[nH]ccc34)cn2)CN(C2CCN(C(=O)c3ccsc3)CC2)C1 on UniProt:O60674, anyone have it?
10 to 50 nM

Request: IC50, test system UniProt:O60674, entry COc1ccc2cc1COCCCCNC(=O)c1ccc(c(F)c1)-c1ccnc(n1)N2
101 to 1000 nM

# query: IC50 | item CCN(CC)CCOc1ccc2cc1COC/C=C/CCOc1cccc(c1)-c1ccnc(n1)N2 | system: UniProt:O60674
≤ 1000 nM

* * *

Compiled record: IC50 values for Tyrosine-protein kinase JAK2 (Homo sapiens) across several sources.

Molecule: CCC(CC)n1cc(-c2nc(-c3cnn(CC(=O)NC(C)C)c3)cn3nccc23)cn1
Tested System: Tyrosine-protein kinase JAK2 (Homo sapiens)
IC50: 100 to 1000 nM
//
Molecule: CCC(CC)Cn1ccc2cnc(Nc3cnn(CC(N)=O)c3)nc21
Tested System: Tyrosine-protein kinase JAK2 (Homo sapiens)
IC50: < 100 nM
//
Molecule: CN(c1ncnc2[nH]ccc12)C1CCC2(CC1)CCN(C(=O)Cc1c[nH]c3ccccc13)CC2
Tested System: Tyrosine-protein kinase JAK2 (Homo sapiens)
IC50: 100 to 1000 nM
//
Molecule: CCN1CCN(Cc2ccc(NC(=O)c3ccc(C)c(-c4ccc5nc(NC(=O)C6CC6)cn5c4)c3)cc2C(F)(F)F)CC1
Tested System: Tyrosine-protein kinase JAK2 (Homo sapiens)
IC50: 672 nM
//
Molecule: Cn1cc(-c2cc3nccn3c(-c3cnn(C4(CC#N)CN(CC5CCC5)C4)c3)n2)cn1
Tested System: Tyrosine-protein kinase JAK2 (Homo sapiens)
IC50: 100 to 1000 nM

Then this molecule:
Returns the measured IC50 for the input molecule. Input: Cn1cc(-c2cc3nccn3c(-c3cnn(C(C)(CC#N)c4ccccc4)c3)n2)cn1 (stereo not drawn)
100 to 1000 nM
